Test system: HCT-116 colon
Assay: NCI-60 one-dose screen, 48 h
Details: 10 µM unless noted
This is part of a sample that, as a whole, favours compounds with a hit. Of some 83,000 tested, about 20% had one in any assay. Active and inactive are the calls of the source. How the source made its calls: active means growth percent below 10; inactive means the rest.
Pick from active, inactive when you respond.

Request: Kindly provide the recorded test outcome for the following molecule: O=C(Nc1cccc(Cl)c1)Nc1ccccc1Cl
Result: inactive

Request: For COc1ccc2c(c1)OC1=C(C(=O)OC1)C2c1cc(OC)c2c(c1)OCCO2 (stereo unspecified) , what call appears in the results of this test?
Result: active

Request: What call does the record list for COc1ccc2nc(-c3ccc(-c4noc(-c5ccc(Cl)cc5)n4)cc3)[nH]c2c1 ?
Result: inactive

Request: What is the recorded call for this molecule in the test? O=C(CCl)N1c2ccccc2Oc2ccc3ccccc3c21
Result: active

Request: Hi, sorry to bother you, what did the test record for O=S(=O)(Nc1ccc2ccccc2c1)N1CCCCC1 ?
Result: inactive

Request: Hi team, can someone confirm the assay call for O=C1N(Cc2ccccc2Cl)c2ccccc2C12NN=C(c1ccccc1)S2 (stereo unspecified) ?
Result: inactive

Request: Call for entry Clc1cc2nc(-c3ccccc3)c(-c3ccccc3)nc2cc1Cl :
Result: inactive

Request: GET /call?item= COc1cc(-c2nn(C(=O)NCCN3CCN(C)CC3)cc2-c2ccncc2)ccc1Cl returns the recorded outcome of this test.
Result: inactive

Request: Hi, sorry to bother you, what did the test record for CNCCCn1c2c(c3ccc(Cl)cc3c1=O)C(=O)c1cc(OC)cnc1-2 ?
Result: active

Request: Check the results log: what was the call for COc1cc(C2CC(c3ccc(Cl)cc3)=NN2C(C)=O)ccc1Oc1ccnc2cc(Cl)ccc12 (stereo unspecified) ?
Result: inactive

Request: Hey, what did the test say about CS(=O)(=O)c1ccc(C(=O)Nc2ccc(Cl)c(-c3ccccn3)c2)c(Cl)c1 ?
Result: inactive

Request: What outcome does the record of this test show for CN1CCC2(CC1)N=C(SCC(=O)Nc1cnc3ccccc3c1)C(c1ccc(Br)cc1)=N2 ?
Result: active

----------
System: PC-3 prostate
Test: NCI-60 one-dose screen, 48 h
Conditions: 10 µM unless noted
This is part of a sample that, as a whole, favours compounds with a hit. Of some 83,000 tested, about 20% had one in any assay. Active and inactive are the calls of the source. How the source made its calls: active means growth percent below 10; inactive means the rest.
// one of t = active, f = inactive, no free text

Consider the worked cases shown below.
COc1ccc(/C(C)=N/NC(=O)CSc2nc3ccccc3c(=O)n2CCc2ccc(S(N)(=O)=O)cc2)cc1 | t
CC1(C)OC2OC3C(CN)OC(c4ccccc4)OC3C2O1 (stereo unspecified) | f
Cc1cccc(/C=N/n2c(-c3ccc(Cl)cc3)nc3c(Br)cc(Br)cc3c2=O)c1 | f

Request: What did the test return for O=c1c2cc(Cl)ccc2oc2ccc(OCCCCCN3CCCCC3)cc12 ?
Result: f

Request: For O=C(c1ccccc1)c1cccc(C(Br)Br)c1 , what call appears in the results of this test?
Result: f

Request: Assay result, entry O=C(CC(=O)C(F)(F)C(F)(F)C(F)(F)F)c1cc2ccccc2o1 — outcome?
Result: f

Request: Which outcome did this test record for the compound COc1ccc2c(c1)OC1=C(C(=O)OC1)C2c1cc(OC)c2c(c1)OCCO2 (stereo unspecified) ?
Result: f

Request: Recorded test outcome, item Clc1cccc(CNc2c3ccccc3nc3ccccc23)c1
Result: f

Request: Any idea what this test logged for COc1cc(NC(=O)CSc2nc3ccc(Cl)cc3c(=O)n2-c2ccccc2)cc(OC)c1OC ?
Result: f

Request: Kindly provide the recorded test outcome for the following compound: Oc1ccccc1-c1nnc(COc2ccc(Cl)cc2Cl)o1
Result: f

Request: Returns: the outcome recorded for CC(C)N(C(=S)SSC(=S)N(C(C)C)C(C)C)C(C)C in this assay.
Result: f

----------
System: HS 578T breast
Experiment: NCI-60 one-dose screen, 48 h
Conditions: 10 µM unless noted
Compounds without any hit were thinned out: in the full panel of roughly 83,000, 20% have a hit. Active and inactive are the calls of the source. Rule for the calls: active = growth percent below 10; inactive = the rest.
Your answer must be one of the following: active, inactive

Request: Call for entry O=c1c2cc(Cl)ccc2oc2ccc(OCCCCCN3CCCCC3)cc12 :
Result: inactive

Request: Recorded call for Oc1ccc(-c2nc3ccccc3s2)cc1CN(Cc1ccccn1)Cc1ccccn1 ?
Result: inactive

Request: For this compound, state the assay outcome: CN1C(=O)C(C(=O)/C=C/c2ccccc2C(=O)O)C(=O)N(C)C1=O
Result: inactive

Request: How did this test come out for CCCCn1cnc2c(SCc3ccc([N+](=O)[O-])cc3)nc(N)nc21 ?
Result: inactive

Request: # outcome recorded in this test, key = CC(=O)NC1C(O[C@H]2C[C@H]3[C@@H]4CC=C5C[C@@H](O)CC[C@]5(C)[C@H]4CC[C@]3(C)[C@H]2[C@H](C)C(=O)CCC(C)C)OCC(O)C1O (some centres not stated)
Result: active

Request: What classification did CCn1c(Cc2ccccc2Nc2c(Cl)cccc2Cl)nnc1SCC(=O)Nc1ccccc1C(F)(F)F end up with in this test?
Result: inactive

----------
System: MDA-MB-435 melanoma
Test: NCI-60 one-dose screen, 48 h (100 = growth as untreated, 0 = no growth, -100 = all killed)
Conditions: 10 µM unless noted
This is part of a sample that, as a whole, favours compounds with a hit. Of some 83,000 tested, about 20% had one in any assay.
Result Type: growth (%)
Lab book: enter the figure in %, no units written.

Use these answered entries as a reference point.
COc1ccc2c(c1)OC1=C(C(=O)OC1)C2c1cc(OC)c2c(c1)OCCO2 (stereo not given) | -18.1
C=CCOC(=O)C1=C(C)NC2=C(C(=O)CCC2)C1c1ccc(F)cc1 (stereo not given) | 101
O=C(NNC(=O)c1cccc(Cl)c1)c1ccccc1 | 103
c1ccc(-c2nnn(-c3ccccc3)n2)cc1 | 106
O=C(N/N=C/c1ccccc1O)c1ccncc1 | 82.5

Reading of growth for CC(=O)O[C@@H]1CC2C(C)(C)CCCC2(C)C2=C1C(=O)C(C(C)C)=CC2=O (stereo not given in full) with MDA-MB-435 melanoma: -28.1

Bench note, MDA-MB-435 melanoma: entry CC(=O)Nc1ccc(/C=N/N2CCCCCC2)cc1 , its growth = 95.6

Summary: CC(C)(CCc1ccccn1)C(=O)CCCc1ccccn1 , MDA-MB-435 melanoma, growth = 109

Summary: COc1cc(C2CC(c3cccc(Nc4ccnc5cc(Cl)ccc45)c3)=NN2C=O)cc(OC)c1OC (stereo not given) , MDA-MB-435 melanoma, growth = -68.1

Let me check: COc1cc2ncnc(Nc3ccc(S(=O)(=O)Nc4cc(C)on4)cc3)c2cc1OCCCN1CCN(c2ccc([N+](=O)[O-])cc2)CC1 , system MDA-MB-435 melanoma, measured growth is 103

----------
Test system: UO-31 renal
Assay: NCI-60 one-dose screen, 48 h (100 = growth as untreated, 0 = no growth, -100 = all killed)
Settings: 10 µM unless noted
This is part of a sample that, as a whole, favours compounds with a hit. Of some 83,000 tested, about 20% had one in any assay.
Note to self: values exactly at 80% are Satisfied. So growth at or above 80% is Satisfied, below is Not satisfied.

Here's what some known entries look like.
O=S1(=O)NCCCN1CCNc1nccc(-c2c(-c3cccc(O)c3)nc3sccn23)n1 | Satisfied
Fc1ccc(-c2nc(-c3ccc(-c4nc5ccc(F)cc5[nH]4)cc3)no2)cc1 | Satisfied
CCCCCCCCCCCCC1CCC(=O)O1 (stereo unspecified) | Satisfied
S=C(Cc1ccccc1)N1CCN(c2ccccc2Cl)CC1 | Satisfied

Here is the next item to consider.
Request: growth >= 80% for COc1cc(NC(=O)CSc2nc3ccc(Cl)cc3c(=O)n2Cc2ccccc2)cc(OC)c1OC ?
Result: Not satisfied

----------
Test system: RPMI-8226 leukemia
Assay: NCI-60 one-dose screen, 48 h (100 = growth as untreated, 0 = no growth, -100 = all killed)
Settings: 10 µM unless noted
Procedure: Growth inhibition of the RPMI-8226 human tumor cell line is measured as a screen for anti-cancer activity. Cells are grown in 96 well plates and exposed to the test compound for 48 hours. Compounds are tested at a single concentration, which is 10^-5 M for most compounds. The reported endpoint is percent growth (GI% or GIPRCNT), where numbers from 0 - 100% represent growth inhibition, and numbers from -100% - 0 represent cell death. For example, a value of 40 represents 60% growth inhibition. […]
Compounds without any hit were thinned out: in the full panel of roughly 83,000, 20% have a hit. Calls of active or inactive are those of the source. Rule for the calls: active = growth percent below 10; inactive = the rest.
Here, each record is paired with measured growth data.

COC(=O)c1ccc2c(c1)nc(-c1ccc(Cl)cc1)n2-c1cc(C(C)(C)C)[nH]n1 | 56.8% (inactive)
CC1OC(n2c3ccccc3c3c4c(c5c6ccccc6[nH]c5c32)C(=O)N(CCN2CCOCC2)C4=O)CC(O)C1O (stereo not given) | 27.8% (inactive)
COc1ccc2nc(C)cc(Sc3nc4ccccc4s3)c2c1 | -39.5% (active)
CCCCCCCCCCCCNC(=O)N[C@H](C(=O)N[C@H]1/C=C/CCNC(=O)/C=C/[C@H](C)NC1=O)C(C)C | 41.1% (inactive)
COC(=O)c1ccc2c(c1)nc(-c1cc3ccccc3[nH]c1=O)n2-c1cc(C(C)(C)C)[nH]n1 | 22% (inactive)
Cc1ccc(Nc2cccc3ccccc23)cc1 | 76.5% (inactive)

GET /value?item= CN1C(=O)NC(Cc2c[nH]c3c(Cl)cccc23)C1=O (stereo not given) &field=growth returns 119% (inactive)

# growth (compound: COc1cccc(/C(C)=N/NC(=O)CSc2nc3ccccc3c(=O)n2CCc2ccc(S(N)(=O)=O)cc2)c1 ) is 4.78% (active)

Recorded growth (compound C=CCOc1ccc2c(C)cc(=O)oc2c1 ): 93.8% (inactive)

Entry c1coc(CNc2c3ccccc3nc3ccccc23)c1 ; growth = 56.6% (inactive)
